Origin of values: patent US20240279318A1

Some binders, each annotated with its measured Kd.
molecular target: T1, AFP158/HLA-A*02:01 complex (human); assay: SPR, crude scFv captured, pMHC analyte;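 also: pMHC analyte injected at three concentrations, association phase of one hundred seconds, then running buffer for dissociation, rates fitted from both curves, KD derived from the rates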
T1 construct: flowed as analyte in SPR

Solved entries (count: 3):
>  <binder>
AS170036 VL1VH1-57H108S (scFv, also called 24-AS170036 VL1VH1-57H108S) scFv: QSALTQPRSVSGSPGQSVTISCAGTSSDVGSENYVSWYQQHPGKAPKLMIYQVNKRASGVPDRFSGSKSGNTASLTISGLQAEDEADYYCASYRSSDHNIVFGGGTKLTVLGGGGSGGGGSGGGGSEVQLVESGGGLVQPGGSLRLSCAASGFTFSSYAMSWVRQAPGKGLEWVSTINSGTGHPYYADSVKGRFTISRDNSKNTLYLQMNSLRAEDTAVYYCAKNFFDGSWFLSPPAMDYWGQGTLVTVSSHHHHHH

>  <measurement type>
Kd

>  <obs value>
16 nM

$$$$
>  <binder>
AS170036 VL1VH1-56Y108D (scFv, also called 17-AS170036 VL1VH1-56Y108D) scFv: QSALTQPRSVSGSPGQSVTISCAGTSSDVGSENYVSWYQQHPGKAPKLMIYQVNKRASGVPDRFSGSKSGNTASLTISGLQAEDEADYYCASYRSSDHNIVFGGGTKLTVLGGGGSGGGGSGGGGSEVQLVESGGGLVQPGGSLRLSCAASGFTFSSYAMSWVRQAPGKGLEWVSTINSGTYSPYYADSVKGRFTISRDNSKNTLYLQMNSLRAEDTAVYYCAKNFFDGSWFLDPPAMDYWGQGTLVTVSSHHHHHH

>  <measurement type>
Kd

>  <obs value>
6 nM

$$$$
>  <binder>
AS170036 VL1VH1-98I108D (scFv, also called 35-AS170036 VL1VH1-98I108D) scFv: QSALTQPRSVSGSPGQSVTISCAGTSSDVGSENYVSWYQQHPGKAPKLMIYQVNKRASGVPDRFSGSKSGNTASLTISGLQAEDEADYYCASYRSSDINIVFGGGTKLTVLGGGGSGGGGSGGGGSEVQLVESGGGLVQPGGSLRLSCAASGFTFSSYAMSWVRQAPGKGLEWVSTINSGTGSPYYADSVKGRFTISRDNSKNTLYLQMNSLRAEDTAVYYCAKNFFDGSWFLDPPAMDYWGQGTLVTVSSHHHHHH

>  <measurement type>
Kd

>  <obs value>
14 nM

$$$$

Problem: Please look up its Kd: AS170036 VL1VH1-57K98I (scFv, also called 11-AS170036 VL1VH1-57K98I) scFv: QSALTQPRSVSGSPGQSVTISCAGTSSDVGSENYVSWYQQHPGKAPKLMIYQVNKRASGVPDRFSGSKSGNTASLTISGLQAEDEADYYCASYRSSDINIVFGGGTKLTVLGGGGSGGGGSGGGGSEVQLVESGGGLVQPGGSLRLSCAASGFTFSSYAMSWVRQAPGKGLEWVSTINSGTGKPYYADSVKGRFTISRDNSKNTLYLQMNSLRAEDTAVYYCAKNFFDGSWFLGPPAMDYWGQGTLVTVSSHHHHHH
Result: 25 nM

Problem: Thanks! And AS170036 VL1VH1-57K108S (scFv, also called 27-AS170036 VL1VH1-57K108S) scFv: QSALTQPRSVSGSPGQSVTISCAGTSSDVGSENYVSWYQQHPGKAPKLMIYQVNKRASGVPDRFSGSKSGNTASLTISGLQAEDEADYYCASYRSSDHNIVFGGGTKLTVLGGGGSGGGGSGGGGSEVQLVESGGGLVQPGGSLRLSCAASGFTFSSYAMSWVRQAPGKGLEWVSTINSGTGKPYYADSVKGRFTISRDNSKNTLYLQMNSLRAEDTAVYYCAKNFFDGSWFLSPPAMDYWGQGTLVTVSSHHHHHH ?
Result: 22 nM
